# System: HT-29
# ASSAY DETAILS: Cytotoxicity against human HT29 cells by MTT assay
# Type: functional, cell-based
QUANTITY: IC50 (µmol)
Lab book: enter the figure in µmol, no units written.

COc1cc2c(cc1O)N=C[C@@H]1CCCN1C2=O = 30.19
COc1cc2c(cc1OCc1ccccc1)N(C(=O)OCc1ccc(O[C@@H]3O[C@H](C(=O)O)[C@@H](O)[C@H](O)[C@H]3O)c([N+](=O)[O-])c1)C(O)[C@@H]1CCCN1C2=O (some centres undefined) = 5280
COc1cc2c(cc1OCCCCCOc1cc3c(cc1OC)C(=O)N1CCC[C@H]1C(O)N3C(=O)OCc1ccc(O[C@@H]3O[C@H](C(=O)O)[C@@H](O)[C@H](O)[C@H]3O)c([N+](=O)[O-])c1)NC(=O)[C@@H]1CCCN1C2=O (some centres undefined) = 2690

// next entry
IC50 lookup needed for COc1cc2c(cc1OCCCCCOc1cc3c(cc1OC)C(=O)N1CCC[C@H]1C(=O)N3)N=C[C@@H]1CCCN1C2=O , thanks.
8.12
